Every entry's value here was drawn from patent US20060252679A1.

# target-or-test-system: GPR4 (Homo sapiens)
# Sequence (P46093 whole entry E215Q): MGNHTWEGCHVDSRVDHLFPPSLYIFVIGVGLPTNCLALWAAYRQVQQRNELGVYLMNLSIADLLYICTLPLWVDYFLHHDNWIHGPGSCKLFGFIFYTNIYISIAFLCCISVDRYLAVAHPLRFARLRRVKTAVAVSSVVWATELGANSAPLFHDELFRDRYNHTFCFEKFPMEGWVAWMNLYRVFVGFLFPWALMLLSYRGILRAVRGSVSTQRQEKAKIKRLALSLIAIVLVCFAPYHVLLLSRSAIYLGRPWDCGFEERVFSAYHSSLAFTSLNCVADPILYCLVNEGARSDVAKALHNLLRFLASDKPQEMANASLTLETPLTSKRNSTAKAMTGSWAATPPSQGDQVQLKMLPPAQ
# method-notes: Antagonistic action on GPR4 (luciferase reporter in GPR4 assay cells)
# conditions: 17β-estradiol 10 nmol/L, 6 hours, luciferase luminescence
quantity-kind: IC50 (nM)
Express the result in nM but write the number alone.

Input: Provide one value: measured IC50 of CCc1nc2c(C)cc(C)nc2n1Cc1ccc2c(c1)CCc1cc(CN3CC(C)CC(C)C3)ccc1N2 (centres unmarked) [Compound 5]
Output: 14

Input: Provide one value: measured IC50 of CCc1nc2c(C)cc(C)nc2n1Cc1ccc2c(c1)CCc1cc(CN3CCCC3)ccc1N2 [Compound 3]
Output: 2.3

Input: Provide one value: measured IC50 of CCc1nc2c(C)cc(C)nc2n1Cc1ccc2c(c1)CCc1cc(CN3CC=CCC3)ccc1N2 [Compound 2]
Output: 3.2

Input: Provide one value: measured IC50 of CCc1nc2c(C)cc(C)nc2n1Cc1ccc2c(c1)CCc1cc(CN3CCN(C)CC3)ccc1N2 [Compound 1]
Output: 4

Input: Provide one value: measured IC50 of CCc1nc2c(C)cc(C)nc2n1Cc1ccc2c(c1)CCc1cc(CN3CCOCC3)ccc1N2 [Compound 4]
Output: 5.8
